# System: HCT-116 colon
# experiment.notes: NCI-60 one-dose screen, 48 h (100 = growth as untreated, 0 = no growth, -100 = all killed)
# protocol.conditions: 10 µM unless noted
About 83,000 compounds went through this panel and 20% of them were active in at least one assay; those are over-represented in the sample as a whole.
experimental.endpoint: growth (%)
Lab book: enter the figure in %, no units written.

Before answering, review these 10 worked examples.
C/C(Cc1ccc(Cl)cc1)=C(\c1ccc(OCCN2CCOCC2)cc1)c1ccc(OC(=O)Cc2ccccc2)cc1 | 86.1
C[C@]12CCc3sc(-c4cccc(F)c4)nc3C1=CC[C@@H]1[C@@H]2CC[C@]2(C)C(=O)CC[C@@H]12 | 0.513
COC(=O)[C@@H](C)C[C@H](Cc1ccccc1)NC(=O)c1nc([C@@H](C[C@H](C(C)C)N(C)C(=O)[C@@H](NC(=O)[C@H]2C[C@H](O)CCN2C)C(C)C)OC(C)=O)sc1C(C)C | 2.56
OCCCCCNC1CCCCC1 | 94.7
OCc1ccc2c(c1)OCO2 | 101
CC[C@H](C)[C@H](NC(=O)c1ccccn1)C(=O)N(C)[C@H](C[C@@H](OC(C)=O)c1nc(C(=O)N[C@@H](Cc2ccccc2)C[C@H](C)C(=O)OC)cs1)C(C)C | 9.41
O=[N+]([O-])CC(c1ccccc1Cl)c1c(-c2ccccc2)[nH]c2ccccc12 (stereo unspecified) | 20.3
O=C(CC1(O)C(=O)N(Cc2ccccc2)c2ccccc21)c1ccc(C(=O)NCC2CCC3(CC2)OOC2(CCCCC2)OO3)cc1 (stereo unspecified) | 15.5
CN1C(=O)N[C@H]2[C@@H]3NC(=O)c4ccc(Br)n4[C@@H]3C[C@]21O | -17.1
O=C1C=C(N2C3C4CCC(C4)C32)C(=O)C=C1c1ccccc1 (stereo unspecified) | 85

Q: Recorded growth of CCC(CC)CC1(C)CC2(C)CCOC2OO1 (stereo unspecified) , please.
Ans: 108

Q: Item under review: CC12CC=CCC1CCC1C2CCC2(C)C(c3ccc(=O)oc3)CCC12O (stereo unspecified) . Reported growth?
Ans: -67.1

Q: Fill in the blank: the reported growth of NC(=Nc1ccccc1)N[N+](=O)[O-] is ____.
Ans: 101

Q: Which growth value belongs to COc1ccc2c(c1)c(-c1nc(-c3cn(C)c4ncccc34)cs1)cn2CCCCN1CCCCC1 ?
Ans: -93

Q: Any idea what its growth is? The molecule is Fc1c[c-]c(-c2ccccn2)c(F)c1.[CH3-].[Pt+2].c1ccc([PH+](c2ccccc2)c2ccccn2)cc1
Ans: -43.8

Q: Could you share which growth value was measured for CC[C@H](C)[C@H](NC(=O)c1nccn1C)C(=O)N(C)[C@H](C[C@@H](OC(C)=O)c1nc(C(=O)N[C@@H](Cc2ccccc2)C[C@H](C)C(=O)OC)cs1)C(C)C ?
Ans: 3.27
